Sourced from patent US20060211700A1

molecular target: UniProt P28223; assay: In vitro functional response (aequorin luminescence) in CHO-K1 cells expressing 5-HT2A; conditions: CHO-K1 cells, aequorin, Gα16
Sequence (P28223 whole entry): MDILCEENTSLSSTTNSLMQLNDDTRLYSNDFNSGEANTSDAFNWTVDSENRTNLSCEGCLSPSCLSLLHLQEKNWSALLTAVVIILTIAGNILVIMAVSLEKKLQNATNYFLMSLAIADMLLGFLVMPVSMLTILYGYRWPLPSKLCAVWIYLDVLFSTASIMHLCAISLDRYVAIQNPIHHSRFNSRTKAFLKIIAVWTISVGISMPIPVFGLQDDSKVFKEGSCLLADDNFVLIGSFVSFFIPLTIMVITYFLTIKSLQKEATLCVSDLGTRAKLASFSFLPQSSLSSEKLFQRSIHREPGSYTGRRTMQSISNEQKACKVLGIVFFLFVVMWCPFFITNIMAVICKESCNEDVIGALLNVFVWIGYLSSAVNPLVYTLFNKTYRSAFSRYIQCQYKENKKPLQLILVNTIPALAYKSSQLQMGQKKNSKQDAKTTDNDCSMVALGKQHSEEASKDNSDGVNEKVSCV
observedProperty: EC50

Solved entries:
| compound | experimentalValue |
| --- | --- |
| O=C1Nc2cc(Cl)c(Cl)cc2N2CCNC[C@@H]12 [S enantiomer] | 2260 nM |
| O=C1Nc2cc(Cl)c(Cl)cc2N2CCNCC12 (racemic) [Racemic] | 37.5 nM |

Here's the next entry for you.
The recorded EC50 for entry O=C1Nc2cc(Cl)c(Cl)cc2N2CCNC[C@H]12 [R enantiomer] equals 20.5 nM

----------
Collected pEC50 values appear next to each entry.
target: human serotonin receptor clone 5-HT2C (Homo sapiens); assay: In vitro functional response (aequorin luminescence) in CHO-K1 cells expressing 5-HT2C; details: CHO-K1 cells, aequorin, Gα16
Sequence (P28335 33-458): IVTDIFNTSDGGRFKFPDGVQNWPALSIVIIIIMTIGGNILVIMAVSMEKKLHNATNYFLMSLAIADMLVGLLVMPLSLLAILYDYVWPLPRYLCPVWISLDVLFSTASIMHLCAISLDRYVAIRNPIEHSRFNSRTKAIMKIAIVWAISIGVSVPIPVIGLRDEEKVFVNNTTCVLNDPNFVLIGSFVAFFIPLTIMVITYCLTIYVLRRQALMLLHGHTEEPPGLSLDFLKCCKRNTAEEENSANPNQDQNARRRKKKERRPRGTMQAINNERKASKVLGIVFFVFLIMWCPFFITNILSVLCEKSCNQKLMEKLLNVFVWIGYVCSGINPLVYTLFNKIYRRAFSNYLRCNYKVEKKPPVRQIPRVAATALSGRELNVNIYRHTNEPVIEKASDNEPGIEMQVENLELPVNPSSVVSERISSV
Scale: pEC50 equals -log10([C]), with [C] in mol/L.

| molecule | observedProperty | experimentalValue |
| --- | --- | --- |
| O=C1Nc2cc(Cl)c(Cl)cc2N2CCNC[C@H]12 [R enantiomer] | pEC50 | 8.59 |

The recorded pEC50 for entry O=C1Nc2cc(Cl)c(Cl)cc2N2CCNCC12 (racemic) [Racemic] equals 8.38

The recorded pEC50 for entry O=C1Nc2cc(Cl)c(Cl)cc2N2CCNC[C@@H]12 [S enantiomer] equals 6.21
